Tested on: Escherichia coli TOP10
Assay info: shrunken log2 fold change of peptide-encoding DNA abundance (4.5 h post-induction vs induction); higher = less antimicrobial activity (less host growth inhibition)
Particulars: time post-induction: 4.5 h; library: site-saturation at positions 5, 18, 19, 20
shrunken log2 fold change by entry:
Measured metric: shrunken log2 fold change

In [3]: df
Out[3]:
        biopolymer_sequence             test_target  test_result
 0  RRIRIRPPRLPRPRPRPTCDPRP  Escherichia coli TOP10       -0.369
 1  RRIRLRPPRLPRPRPRPDRHPRP  Escherichia coli TOP10       -0.279
 2  RRIRTRPPRLPRPRPRPTEHPRP  Escherichia coli TOP10       -0.106
 3  RRIRVRPPRLPRPRPRPIFDPRP  Escherichia coli TOP10      -0.0222
 4  RRIRLRPPRLPRPRPRPEKCPRP  Escherichia coli TOP10      -0.0157
 5  RRIRNRPPRLPRPRPRPAHMPRP  Escherichia coli TOP10       -0.167
 6  RRIRERPPRLPRPRPRPGGGPRP  Escherichia coli TOP10        0.855
 7  RRIRDRPPRLPRPRPRPRIMPRP  Escherichia coli TOP10        0.015
 8  RRIRTRPPRLPRPRPRPMYNPRP  Escherichia coli TOP10       -0.325
 9  RRIRQRPPRLPRPRPRPVYFPRP  Escherichia coli TOP10       -0.446
10  RRIRQRPPRLPRPRPRPEIPPRP  Escherichia coli TOP10      -0.0704
11  RRIRLRPPRLPRPRPRPGLRPRP  Escherichia coli TOP10        0.234
12  RRIRQRPPRLPRPRPRPCWFPRP  Escherichia coli TOP10       -0.257
13  RRIRGRPPRLPRPRPRPLVEPRP  Escherichia coli TOP10          1.2
14  RRIRHRPPRLPRPRPRPNWNPRP  Escherichia coli TOP10       -0.451

====

Test system: Escherichia coli TOP10;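 note: peptides expressed intracellularly from a pBAD plasmid library in pooled LB shake-flask culture, induced with 0.3% L-arabinose, DNA abundance read by NGS, three biological replicates, DESeq2 with apeglm shrinkage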
Assay info: shrunken log2 fold change of peptide-encoding DNA abundance (4.5 h post-induction vs induction); higher = less antimicrobial activity (less host growth inhibition)
Particulars: time post-induction: 4.5 h; library: site-saturation at positions 5, 18, 19, 20
shrunken log2 fold change by entry:
Measured metric: shrunken log2 fold change

        biopolymer_sequence            measured_metric  test_result
 0  RRIRMRPPRLPRPRPRPINQPRP  shrunken log2 fold change        0.257
 1  RRIRHRPPRLPRPRPRPWLHPRP  shrunken log2 fold change     -0.00987
 2  RRIRWRPPRLPRPRPRPRFSPRP  shrunken log2 fold change       0.0681
 3  RRIRCRPPRLPRPRPRPIGWPRP  shrunken log2 fold change      -0.0817
 4  RRIRFRPPRLPRPRPRPCVHPRP  shrunken log2 fold change      0.00355
 5  RRIRRRPPRLPRPRPRPGYAPRP  shrunken log2 fold change        0.259
 6  RRIRWRPPRLPRPRPRPEFDPRP  shrunken log2 fold change        0.198
 7  RRIRCRPPRLPRPRPRPAPYPRP  shrunken log2 fold change       0.0992
 8  RRIRQRPPRLPRPRPRPDKFPRP  shrunken log2 fold change       -0.513
 9  RRIRKRPPRLPRPRPRPHGYPRP  shrunken log2 fold change       0.0773
10  RRIRLRPPRLPRPRPRPVESPRP  shrunken log2 fold change      -0.0112
11  RRIRGRPPRLPRPRPRPKRLPRP  shrunken log2 fold change        0.217
12  RRIRMRPPRLPRPRPRPEYVPRP  shrunken log2 fold change         0.16
13  RRIRQRPPRLPRPRPRPSFKPRP  shrunken log2 fold change       -0.525
14  RRIRLRPPRLPRPRPRPTEAPRP  shrunken log2 fold change     -0.00104
15  RRIRCRPPRLPRPRPRPVLCPRP  shrunken log2 fold change       -0.112
16  RRIRMRPPRLPRPRPRPQIIPRP  shrunken log2 fold change        0.022
17  RRIRLRPPRLPRPRPRPKYYPRP  shrunken log2 fold change         -1.1
18  RRIRARPPRLPRPRPRPIKEPRP  shrunken log2 fold change      -0.0357
19  RRIRARPPRLPRPRPRPTQTPRP  shrunken log2 fold change         0.69
20  RRIRSRPPRLPRPRPRPCEYPRP  shrunken log2 fold change       0.0232
21  RRIRQRPPRLPRPRPRPQHMPRP  shrunken log2 fold change       0.0284
22  RRIRSRPPRLPRPRPRPIILPRP  shrunken log2 fold change       -0.617
23  RRIRARPPRLPRPRPRPLGEPRP  shrunken log2 fold change        0.896
24  RRIRCRPPRLPRPRPRPYWDPRP  shrunken log2 fold change         -1.1
25  RRIRMRPPRLPRPRPRPHMCPRP  shrunken log2 fold change     0.000241
26  RRIRCRPPRLPRPRPRPQFWPRP  shrunken log2 fold change        0.303
27  RRIRTRPPRLPRPRPRPDKEPRP  shrunken log2 fold change      -0.0196
28  RRIRSRPPRLPRPRPRPFVMPRP  shrunken log2 fold change      -0.0833
29  RRIRARPPRLPRPRPRPQYSPRP  shrunken log2 fold change      -0.0321
30  RRIRWRPPRLPRPRPRPVAYPRP  shrunken log2 fold change      -0.0891
31  RRIRGRPPRLPRPRPRPDGNPRP  shrunken log2 fold change        0.276
32  RRIRERPPRLPRPRPRPVNCPRP  shrunken log2 fold change       -0.315
33  RRIRVRPPRLPRPRPRPDIHPRP  shrunken log2 fold change       -0.427
34  RRIRPRPPRLPRPRPRPIFTPRP  shrunken log2 fold change      -0.0736
35  RRIRIRPPRLPRPRPRPTATPRP  shrunken log2 fold change       0.0371
36  RRIRRRPPRLPRPRPRPPWHPRP  shrunken log2 fold change        0.516
37  RRIRFRPPRLPRPRPRPRPDPRP  shrunken log2 fold change        0.282
38  RRIRHRPPRLPRPRPRPWIWPRP  shrunken log2 fold change      -0.0845
39  RRIRYRPPRLPRPRPRPPHIPRP  shrunken log2 fold change       -0.808
40  RRIRQRPPRLPRPRPRPTALPRP  shrunken log2 fold change      -0.0491
41  RRIRLRPPRLPRPRPRPMHTPRP  shrunken log2 fold change         0.25
42  RRIRSRPPRLPRPRPRPTYHPRP  shrunken log2 fold change       -0.492
43  RRIRFRPPRLPRPRPRPAMWPRP  shrunken log2 fold change       0.0848
44  RRIRPRPPRLPRPRPRPHVMPRP  shrunken log2 fold change      -0.0285
45  RRIRTRPPRLPRPRPRPDMIPRP  shrunken log2 fold change      0.00205
46  RRIRWRPPRLPRPRPRPPRPPRP  shrunken log2 fold change        0.859
47  RRIRCRPPRLPRPRPRPECDPRP  shrunken log2 fold change        0.346
48  RRIRMRPPRLPRPRPRPEENPRP  shrunken log2 fold change         3.95
49  RRIRERPPRLPRPRPRPTLDPRP  shrunken log2 fold change        0.149
50  RRIRIRPPRLPRPRPRPYQIPRP  shrunken log2 fold change       -0.273
51  RRIRTRPPRLPRPRPRPFRRPRP  shrunken log2 fold change      -0.0209
52  RRIRGRPPRLPRPRPRPITAPRP  shrunken log2 fold change        0.236
53  RRIRDRPPRLPRPRPRPSTGPRP  shrunken log2 fold change       -0.313
54  RRIRCRPPRLPRPRPRPNHLPRP  shrunken log2 fold change       -0.437
55  RRIRQRPPRLPRPRPRPTTHPRP  shrunken log2 fold change      0.00963
56  RRIRDRPPRLPRPRPRPEWPPRP  shrunken log2 fold change        0.209
57  RRIRTRPPRLPRPRPRPAGPPRP  shrunken log2 fold change       -0.257
58  RRIRYRPPRLPRPRPRPRLMPRP  shrunken log2 fold change      -0.0571
59  RRIRQRPPRLPRPRPRPIQDPRP  shrunken log2 fold change       0.0208
60  RRIRGRPPRLPRPRPRPIRVPRP  shrunken log2 fold change       -0.189
61  RRIRRRPPRLPRPRPRPVNTPRP  shrunken log2 fold change      -0.0567
62  RRIRERPPRLPRPRPRPGMWPRP  shrunken log2 fold change        0.178
